Entry source: ChEMBL document CHEMBL4689842

# System: HEK-293T
# Test details: Incucyte cell viability with HEK293T; further: filed as whole numbers so only -1 and 0 and 1 occur
# Assay type: toxicity, cell-based
# Applied conditions: human, 12 h, 10 µM, compound concentration 10 uM, replicate number 2, timepoint 12 hours
Readout: Growth Rate
The reply should be a number, written without any unit.

The following compounds have reported results that may help.
1) CCCCCNC(=O)NS(=O)(=O)c1cc([N+](=O)[O-])ccc1NC1CCCCC1; 1
2) O=C(Nc1cccnn1)N1CC(C/C=C/c2cncc(Oc3ccc(C(F)(F)F)cn3)n2)C1; 1
3) CN(C)C(=O)c1cc2cnc(Nc3ccc(N4CCNCC4)cn3)nc2n1C1CCCC1 [RIBOCICLIB]; 0
4) N[C@@H](Cc1cc(I)c(Oc2ccc(O)c(I)c2)c(I)c1)C(=O)O [LIOTHYRONINE]; 0
5) CC[C@H](CO)Nc1nc(NCc2ccccc2)c2ncn(C(C)C)c2n1 [SELICICLIB]; 0

Entry under review: CC(C)(Sc1ccc(CCN(CCCCC2CCCCC2)C(=O)NC2CCCCC2)cc1)C(=O)O [GW7647] . Reported Growth Rate?
1

Given C=C(c1ccc(C(=O)O)cc1)c1cc2c(cc1C)C(C)(C)CCC2(C)C [BEXAROTENE] , state its recorded Growth Rate.
1
